# credit: ChEMBL document CHEMBL1143920

test system: Schistosoma mansoni; test: Anthelmintic activity against Schistosoma mansoni; format: functional, organism-based
Measured IC50, listed per entry for reference.
Quantity Measured: IC50 (µg/mL)

| Compound | Quantity Measured | Unit Abbrev | Relational Operator | Reported Result |
| --- | --- | --- | --- | --- |
| CC1N=C(c2ccccc2Cl)c2c(/N=N\c3c(O)ccc4ccccc34)cccc2NC1=O (stereo not given) | IC50 | µg/mL | > | 10 |
| CCc1cc(/N=N/c2cccc3c2C(c2ccccc2Cl)=NC(C)C(=O)N3)ccc1O (stereo not given) | IC50 | µg/mL | = | 5.79 |
| Cc1cc(C)c(O)c(/N=N/c2cccc3c2C(c2ccccc2Cl)=NC(C)C(=O)N3)c1 (stereo not given) | IC50 | µg/mL | > | 10 |
| CC1N=C(c2ccccc2Cl)c2c(/N=N/c3ccc(O)cc3)cccc2NC1=O (stereo not given) | IC50 | µg/mL | > | 10 |
| CC1N=C(c2ccccc2Cl)c2c(/N=N/c3ccc(O)cc3Br)cccc2NC1=O (stereo not given) | IC50 | µg/mL | = | 10 |
| CC1N=C(c2ccccc2Cl)c2c(/N=N/c3c(Cl)cc(O)cc3Cl)cccc2NC1=O (stereo not given) | IC50 | µg/mL | = | 5.79 |
| CC1NC(c2ccccc2Cl)c2cc([N+](=O)[O-])ccc2NC1=S (stereo not given) | IC50 | µg/mL | = | 4.75 |
| C[C@@H]1N=C(c2ccccc2Cl)c2cc([N+](=O)[O-])ccc2NC1=O | IC50 | µg/mL | = | 0.37 |
| CC1N=C(c2ccccc2Cl)c2c(/N=N/c3ccc(O)c(C(C)C)c3)cccc2NC1=O (stereo not given) | IC50 | µg/mL | = | 5.79 |
| CC1N=C(c2ccccc2Cl)c2cc([N+](=O)[O-])ccc2NC1=S (stereo not given) | IC50 | µg/mL | = | 0.35 |

* * *

Measured IC50, listed per entry for reference.
tested on: Schistosoma mansoni; experiment: Anthelmintic activity against Schistosoma mansoni; assay type: functional, organism-based
Quantity Measured: IC50 (µg/mL)

| Compound | Quantity Measured | Relational Operator | Reported Result |
| --- | --- | --- | --- |
| CC1NC(c2ccccc2Cl)c2cc([N+](=O)[O-])ccc2NC1=O (centres undefined) | IC50 | = | 1.3 |
| CC1N=C(c2ccccc2Cl)c2cc(N)ccc2NC1=O (centres undefined) | IC50 | > | 10 |
| CC1N=C(c2ccccc2Cl)c2c(/N=N/c3c(F)cc(O)cc3F)cccc2NC1=O (centres undefined) | IC50 | = | 3.8 |
| CC1N=C(c2ccccc2Cl)c2c(/N=N\c3ccc(O)c4ccccc34)cccc2NC1=O (centres undefined) | IC50 | = | 9.1 |
